Cited source for all entries: paper PMC12627087

Target: the molecule itself
Experiment: SEC + SEC-MALS + other: negative stain electron microscopy; self-assembly of the protomer into the nanoparticle; Superose 6 10/300 at 0.5 ml/min with DAWN HELEOS II and Optilab T-rEX detectors, glycan mass corrected by protein-conjugate analysis; nsEM at 0.1 mg/ml in HBS, uranyl formate
assay_readout: binding result

[
  {
    "protein": "J3 24mer (other, glycosylated (engineered glycosylation sites), Plasmodium falciparum circumsporozoite protein (PfCSP), strain 3D7; J3, full-length junctional peptide beginning with Region I; Self-assembling ferritin nanoparticle; cloned into pHLsec between the leader and a double stop codon (AgeI/KpnI); also called peptide J3-24mer; source: FreeStyle 293 F cells, transfected, purified (snowdrop lectin agarose, Superose 6 SEC); copies: 24) KLKQPADGNPDPNANPNVDPNANPNVDPNANPNVDPLSKDIIKLLNEQVNKEMQSSNLYMSMSSWCYTHSLDGAGLFLFDHAAEEYEHAKKLIIFLNENNVPVNLTSISAPEHNFTGLTQIFQKAYEHEQNISESINNITDHAIKSKDHATFNFLQWYVAEQHEEEVLFKDILDKIELIGNENHGLYLADQYVKGIAKSRKS",
    "experimental_result": "binds"
  },
  {
    "protein": "C-term WT 24mer (other, glycosylated (engineered glycosylation sites), Plasmodium falciparum circumsporozoite protein (PfCSP), strain 3D7; wild-type C-terminal αTSR domain, without the C-terminal linker; linker; Self-assembling ferritin nanoparticle; cloned into pHLsec between the leader and a double stop codon (AgeI/KpnI); also called wild-type C-terminal domain on 24mer; WT αTSR 24mer; source: FreeStyle 293 F cells, transfected, purified (snowdrop lectin agarose, …)) EPSDKHIKEYLNKIQNSLSTEWSPCSVTCGNGIQVRIKPGSANKPKDELDYANDIEKKICKMEKCGGSLSKDIIKLLNEQVNKEMQSSNLYMSMSSWCYTHSLDGAGLFLFDHAAEEYEHAKKLIIFLNENNVPVNLTSISAPEHNFTGLTQIFQKAYEHEQNISESINNITDHAIKSKDHATFNFLQWYVAEQHEEEVLFKDILDKIELIGNENHGLYLADQYVKGIAKSRKS",
    "experimental_result": "binds"
  },
  {
    "protein": "P8 24mer (other, glycosylated (engineered glycosylation sites), Plasmodium falciparum circumsporozoite protein (PfCSP), strain 3D7; Self-assembling ferritin nanoparticle; cloned into pHLsec between the leader and a double stop codon (AgeI/KpnI); source: FreeStyle 293 F cells, transfected, purified (snowdrop lectin agarose, Superose 6 SEC); copies: 24) NYYGKQENWYSLKKNLSKDIIKLLNEQVNKEMQSSNLYMSMSSWCYTHSLDGAGLFLFDHAAEEYEHAKKLIIFLNENNVPVNLTSISAPEHNFTGLTQIFQKAYEHEQNISESINNITDHAIKSKDHATFNFLQWYVAEQHEEEVLFKDILDKIELIGNENHGLYLADQYVKGIAKSRKS",
    "experimental_result": "binds"
  }
]
